Values from patent US20260116921A1

Recorded half-life at 20 μM values for a group of molecules are listed next.
Assay: in vitro
Settings: both, SD, rat, plasma (EDTA)
Numbered stars: 1 amine (or outer) side, 2 acyl side, 3 side chain; on linkers, the order of the positions; unused ones are H or OH. Bridge positions count the residues as written; N and C are the ends. Square brackets hold non-standard residues; d marks the D form. Peptide text beside a SMILES is read from it. X1 = CCc1cccc2c(C[C@H](N[*:1])C(=O)[*:2])c[nH]c12; Trp(7-Me) = Cc1cccc2c(C[C@H](N)C(=O)O)c[nH]c12; 2Nal = N[C@@H](Cc1ccc2ccccc2c1)C(=O)O; AEF = NCCOc1ccc(C[C@H](N)C(=O)O)cc1; Cit = NC(=O)NCCC[C@H](N)C(=O)O; Pen = CC(C)(S)[C@H](N)C(=O)O; αMeK = C[C@](N)(CCCCN)C(=O)O
READOUT LABEL: half-life at 20 μM (h)

MOLECULE: CC[C@H](C)[C@H](NC(=O)[C@H](CCCCNC(C)=O)NC(=O)[C@](C)(CC(C)C)NC(=O)[C@H](Cc1ccc2ccccc2c1)NC(=O)[C@H](Cc1ccc(OCCN)cc1)NC(=O)[C@H]1NC(=O)[C@H](CCC(N)=O)NC(=O)[C@H](Cc2c[nH]c3c(C)cccc23)NC(=O)[C@H]([C@@H](C)O)NC(=O)[C@H](CC(N)=O)NC(=O)[C@@H](NC(C)=O)C(C)(C)SSC1(C)C)C(=O)NCCC(N)=O
READOUT LABEL: half-life at 20 μM
COMPARISON SIGN: =
QUANTITATIVE READOUT: 13
--
MOLECULE: CCC(CC)(NC(=O)[C@H](Cc1ccc2ccccc2c1)NC(=O)[C@H](Cc1ccc(OCCN)cc1)NC(=O)[C@H]1NC(=O)[C@H](CCC(N)=O)NC(=O)[C@H](Cc2c[nH]c3c(C)cccc23)NC(=O)[C@H]([C@@H](C)O)NC(=O)[C@H](CC(N)=O)NC(=O)[C@@H](NC(C)=O)C(C)(C)SSC1(C)C)C(=O)N[C@@H](CCCCNC(C)=O)C(=O)N[C@@H](CC(N)=O)C(=O)NCCC(N)=O
READOUT LABEL: half-life at 20 μM
COMPARISON SIGN: =
QUANTITATIVE READOUT: 5
--
MOLECULE: CC(=O)NCCCC[C@H](NC(=O)[C@](C)(CC(C)C)NC(=O)[C@H](Cc1ccc2ccccc2c1)NC(=O)[C@H](Cc1ccc(OCCN)cc1)NC(=O)[C@H]1NC(=O)[C@H](CCC(N)=O)NC(=O)[C@H](Cc2c[nH]c3c(C)cccc23)NC(=O)[C@H]([C@@H](C)O)NC(=O)[C@H](CC(N)=O)NC(=O)[C@@H](NC(C)=O)C(C)(C)SSC1(C)C)C(=O)N[C@H](CC(C)C)C(=O)NCCC(N)=O
READOUT LABEL: half-life at 20 μM
COMPARISON SIGN: <
QUANTITATIVE READOUT: 0.3
--
MOLECULE: CC(=O)NCCCC[C@H](NC(=O)[C@](C)(CCCCN)NC(=O)[C@H](Cc1ccc2ccccc2c1)NC(=O)[C@H](Cc1ccc(OCCN)cc1)NC(=O)[C@H]1NC(=O)[C@H](CCCNC(N)=O)NC(=O)[C@H](Cc2c[nH]c3c(C)cccc23)NC(=O)[C@H]([C@@H](C)O)NC(=O)[C@H](CC(N)=O)NC(=O)[C@@H](NC(C)=O)C(C)(C)SSC1(C)C)C(=O)N[C@@H](CC(N)=O)C(=O)N[C@H](CCCNC(=N)N)C(N)=O [compound 256] (Ac-[Pen]NT[Trp(7-Me)][Cit][Pen][AEF][2Nal][αMeK]K(Ac)N[dR]-NH2; disulfide 1-6)
READOUT LABEL: half-life at 20 μM
COMPARISON SIGN: >
QUANTITATIVE READOUT: 24
--
MOLECULE: CCc1cccc2c(C[C@@H]3NC(=O)[C@H]([C@@H](C)O)NC(=O)[C@H](CC(N)=O)NC(=O)[C@@H](NC(C)=O)C(C)(C)SSC(C)(C)[C@@H](C(=O)N[C@@H](Cc4ccc(OCCN)cc4)C(=O)N[C@@H](Cc4ccc5ccccc5c4)C(=O)N[C@@](C)(CCCCN)C(=O)N[C@@H](CCCCNC(C)=O)C(=O)N[C@@H](CC(N)=O)C(=O)N[C@H](CC(C)C)C(N)=O)NC(=O)[C@H](CCCCNC(C)=O)NC3=O)c[nH]c12 [compound 284] (Ac-[Pen]NT[X1]K(Ac)[Pen][AEF][2Nal][αMeK]K(Ac)N[dL]-NH2; disulfide 1-6)
READOUT LABEL: half-life at 20 μM
COMPARISON SIGN: >
QUANTITATIVE READOUT: 24

====

Assay: in vitro
Conditions: human, 20% fecal homogenate (supernatant), anaerobic, pH 6.8
Bridge positions count the residues as written; N and C are the ends. Square brackets hold non-standard residues; d marks the D form. Peptide text beside a SMILES is read from it. Trp(7-Me) = Cc1cccc2c(C[C@H](N)C(=O)O)c[nH]c12; Trp(1-Me) = Cn1cc(C[C@H](N)C(=O)O)c2ccccc21; AEF = NCCOc1ccc(C[C@H](N)C(=O)O)cc1; Pen = CC(C)(S)[C@H](N)C(=O)O; αMeK = C[C@](N)(CCCCN)C(=O)O; βAla = NCCC(=O)O
Recorded half-life at 20 μM values for a group of compounds are listed next.
READOUT LABEL: half-life at 20 μM

COMPOUND: CC(=O)NCCCC[C@H](NC(=O)[C@](C)(CC(C)C)NC(=O)[C@H](Cc1ccc2ccccc2c1)NC(=O)[C@H](Cc1ccc(OCCN)cc1)NC(=O)[C@H]1NC(=O)[C@H](CCC(N)=O)NC(=O)[C@H](Cc2c[nH]c3c(C)cccc23)NC(=O)[C@H]([C@@H](C)O)NC(=O)[C@H](CC(N)=O)NC(=O)[C@@H](NC(C)=O)C(C)(C)SSC1(C)C)C(=O)NCCC(=O)NCCC(N)=O [compound 226]
READOUT LABEL: half-life at 20 μM
RESULT: > 24 h
--
COMPOUND: CC(=O)NCCCC[C@H](NC(=O)[C@](C)(CCCCN)NC(=O)[C@H](Cc1cn(C)c2ccccc12)NC(=O)[C@H](Cc1ccc(OCCN)cc1)NC(=O)[C@H]1NC(=O)[C@H](CCC(N)=O)NC(=O)[C@H](Cc2c[nH]c3c(C)cccc23)NC(=O)[C@H]([C@@H](C)O)NC(=O)[C@H](CC(N)=O)NC(=O)[C@@H](NC(C)=O)C(C)(C)SSC1(C)C)C(=O)N[C@@H](CC(N)=O)C(=O)NCCC(N)=O [compound 283] (Ac-[Pen]NT[Trp(7-Me)]Q[Pen][AEF][Trp(1-Me)][αMeK]K(Ac)N[βAla]-NH2; disulfide 1-6)
READOUT LABEL: half-life at 20 μM
RESULT: > 24 h

====

Test: in vitro
Details: human, 20% fecal homogenate (supernatant), anaerobic, pH 6.8
Bridge positions count the residues as written; N and C are the ends. Square brackets hold non-standard residues; d marks the D form. Peptide text beside a SMILES is read from it. Trp(7-Me) = Cc1cccc2c(C[C@H](N)C(=O)O)c[nH]c12; 2Nal = N[C@@H](Cc1ccc2ccccc2c1)C(=O)O; AEF = NCCOc1ccc(C[C@H](N)C(=O)O)cc1; Cit = NC(=O)NCCC[C@H](N)C(=O)O; Pen = CC(C)(S)[C@H](N)C(=O)O; αMeK = C[C@](N)(CCCCN)C(=O)O

MOLECULE: CC(=O)NCCCC[C@H](NC(=O)[C@](C)(CCCCN)NC(=O)[C@H](Cc1ccc2ccccc2c1)NC(=O)[C@H](Cc1ccc(OCCN)cc1)NC(=O)[C@H]1NC(=O)[C@H](CCCNC(N)=O)NC(=O)[C@H](Cc2c[nH]c3c(C)cccc23)NC(=O)[C@H]([C@@H](C)O)NC(=O)[C@H](CC(N)=O)NC(=O)[C@@H](NC(C)=O)C(C)(C)SSC1(C)C)C(=O)N[C@@H](CC(N)=O)C(=O)N[C@@H](CO)C(N)=O [compound 260] (Ac-[Pen]NT[Trp(7-Me)][Cit][Pen][AEF][2Nal][αMeK]K(Ac)NS-NH2; disulfide 1-6)
half-life at 20 μM, min: 900
